Recorded EC50 by entry
System: IFN-β secretion by THP-1 cells
TEST METHOD NOTES: Activation of IFN-β secretion by THP-1 cells (Human IFN-beta ELISA)
Format: cell-based
EXPERIMENTAL SETUP: Homo sapiens, THP-1, 24 h, THP-1 cells, 24 hours, IFN-β ELISA
Structures can show the parent of a compound that is named as a salt.

Known results for compounds:
[
  {
    "COMPOUND": "Nc1nc(Cl)nc2c1ncn2[C@@H]1O[C@@H]2CO[P@@](=O)(S)OC3C(O)[C@@H](CO[P@@](=O)(S)OC2C1F)O[C@H]3n1cnc2c(N)ncnc21 (stereo partly drawn) [Example 5, diammonium salt]",
    "EC50": "10.1 to 100 µM"
  },
  {
    "COMPOUND": "CNc1nc(N)c2ncn([C@@H]3O[C@@H]4CO[P@@](=O)(S)O[C@H]5C(O)[C@@H](CO[P@@](=O)(S)O[C@@H]4C3F)O[C@H]5n3cnc4c(=O)[nH]c(N)nc43)c2n1 (stereo partly drawn) [Example 26, diammonium salt]",
    "EC50": "1 to 10 µM"
  }
]

Consider the compound shown here: Nc1nc(Cl)nc2c1ncn2[C@@H]1O[C@@H]2CO[P@@](=O)(S)OC3[C@@H](CO[P@@](=O)(S)O[C@@H]2C1F)O[C@@H](n1cnc2c(N)ncnc21)[C@H]3F (stereo partly drawn) [Example 18] What is its recorded EC50?
10.1 to 100 µM

* * *

Tested on: IFN-β secretion by THP-1 cells
TEST METHOD NOTES: Activation of IFN-β secretion by THP-1 cells (Human IFN-beta ELISA)
Format: cell-based
EXPERIMENTAL SETUP: Homo sapiens, THP-1, 24 h, THP-1 cells, 24 hours, IFN-β ELISA
REPORTED ENDPOINT: EC50

Requested read-out: EC50. Entry: Nc1ncnc2c1ncn2[C@@H]1O[C@@H]2CO[P@@](=O)(S)O[C@@H]3C[C@H](n4cnc5c(N)nc(Cl)nc54)O[C@@H]3CO[P@@](=O)(S)OC2[C@@H]1F (some centres unmarked)
10.1 to 100 µM

* * *

System: CT26 cells
TEST METHOD NOTES: Inhibition of proliferation of CT26 cells (CellTiter-Glo)
Type: cell-based, mouse
EXPERIMENTAL SETUP: Mus musculus, 120 hours, CellTiter-Glo
pIC50: −log10 of the molar value. Structures can show the parent of a compound that is named as a salt.
Each record here notes measured pIC50.

Below, 2 compounds whose answers are already recorded.
[
  {
    "COMPOUND": "Nc1ncnc2c1ncn2[C@@H]1O[C@@H]2CO[P@@](=O)(S)OC3C(F)[C@H](n4cnc5c(N)nc(Cl)nc54)O[C@@H]3CO[P@@](=O)(S)OC2C1O (stereo partly drawn) [Example 7, diammonium salt]",
    "pIC50": "5.00 to 6.00"
  },
  {
    "COMPOUND": "Nc1ccn([C@@H]2O[C@@H]3CO[P@@](=O)(S)OC4[C@@H](CO[P@@](=O)(S)OC3C2(F)F)O[C@@H](n2ccc(N)nc2=O)C4(F)F)c(=O)n1 (stereo partly drawn) [Example 3]",
    "pIC50": "> 6.00"
  }
]

Could you share which pIC50 value was measured for Nc1nc2c(ncn2[C@@H]2O[C@@H]3CO[P@@](=O)(S)OC4C[C@H](n5cnc6c(N)nc(Cl)nc65)O[C@@H]4CO[P@@](=O)(S)OC2C3O)c(=O)[nH]1 (stereo partly drawn) [Example 12, diammonium salt] ?
5.00 to 6.00

Entry source: patent US20240059729A1
